- Test system: HEK293T cells
- assay method text: in vitro
- Assay type: cell-based
- setup conditions: human, 72 h, 6.25 µmol·L−1
- Procedure: The 3-(4,5-dimethylthiazol-2-yl)-2,5-diphenyltetrazolium bromide (MTT) method was performed to assess the cytotoxicity of target compounds in MDCK cells and HEK293T cells. Firstly, MDCK cells or HEK293T cells were seeded into the 96-well plate. Then, the media containing test compounds replaced the growth media after 48 h. […] Finally, absorbance was read at 620 nm using an ELISA plate reader (Tecan Sunrise) after 3 h of further incubation at 37 °C. […]
test readout: HEK293T cells survival rate (%)
A number alone suffices; assume %.

// solved cases for HEK293T cells survival rate follow
smiles text: COc1ccccc1OCCNC(=O)c1ccc(Nc2ccnc3c(C)cccc23)cc1
result: 91.48

smiles text: COc1ccccc1OCCNC(=O)c1ccc(Nc2ccnc3cc(C(F)(F)F)ccc23)cc1
result: 97.91

smiles text: COc1ccccc1OCCNC(=O)c1ccc(Nc2ccnc3cc([N+](=O)[O-])ccc23)cc1
result: 96.34

Field: next molecule
Measured HEK293T cells survival rate of O=C(c1ccc(Nc2ccnc3cc(C(F)(F)F)ccc23)cc1)N1CCN(c2ccc(Cl)cc2)CC1 : 89.66

----------
- Tested on: MDCK cells
- assay method text: in vitro
- Format: cell-based, canine
- setup conditions: dog, 72 h, 50 µmol·L−1
Measured MDCK cells survival rate, listed per entry.
A number alone suffices; assume %.

// solved cases for MDCK cells survival rate follow
molecule: O=C(NC1CCCCC1)c1ccc(Nc2ccnc3cc(C(F)(F)F)ccc23)cc1 [Compound G09]
MDCK cells survival rate, %: 130.46

molecule: O=C(c1ccc(Nc2ccnc3cc(C(F)(F)F)ccc23)cc1)N1CCOCC1 [Compound G12]
MDCK cells survival rate, %: 130.46

molecule: COc1ccccc1OCCNC(=O)c1ccc(Nc2ccnc3ccc(Br)cc23)cc1 [Compound G24]
MDCK cells survival rate, %: 87.44

molecule: Cc1ccc(N2CCN(C(=O)c3ccc(Nc4ccnc5cc(C(F)(F)F)ccc45)cc3)CC2)cc1 [Compound G14]
MDCK cells survival rate, %: 72.26

molecule: COc1ccccc1OCCNC(=O)c1ccc(Nc2ccnc3cc(C)ccc23)cc1 [Compound G21]
MDCK cells survival rate, %: 93.28

molecule: Cc1ccccc1N1CCN(C(=O)c2ccc(Nc3ccnc4cc(C(F)(F)F)ccc34)cc2)CC1 [Compound G13]
MDCK cells survival rate, %: 92.20

Measured MDCK cells survival rate of COc1ccccc1OCCNC(=O)c1ccc(Nc2ccnc3cc(C(F)(F)F)ccc23)cc1 [Compound G07] : 256.24

Measured MDCK cells survival rate of CCOc1ccc(N2CCN(C(=O)c3ccc(Nc4ccnc5cc(C(F)(F)F)ccc45)cc3)CC2)cc1 [Compound G18] : 138.28

Measured MDCK cells survival rate of O=C(c1ccc(Nc2ccnc3cc(C(F)(F)F)ccc23)cc1)N1CCN(c2ccc(OC(F)(F)F)cc2)CC1 [Compound G15] : 93.36

Measured MDCK cells survival rate of CCN(CC)CCCNC(=O)c1ccc(Nc2ccnc3cc(C(F)(F)F)ccc23)cc1 [Compound G06] : 84.01

Measured MDCK cells survival rate of O=C(c1ccc(Nc2ccnc3cc(C(F)(F)F)ccc23)cc1)N1CCN(c2ccc(Cl)cc2)CC1 [Compound G17] : 63.22

Measured MDCK cells survival rate of CCNC(=O)c1ccc(Nc2ccnc3cc(C(F)(F)F)ccc23)cc1 [Compound G01] : 121.65

Measured MDCK cells survival rate of O=C(NC1CCC(O)CC1)c1ccc(Nc2ccnc3cc(C(F)(F)F)ccc23)cc1 (centres unmarked) [Compound G10] : 127.95

Measured MDCK cells survival rate of COc1ccccc1OCCNC(=O)c1ccc(Nc2ccnc3c(C)cccc23)cc1 [Compound G20] : 8.88

----------
- Test system: MDCK cells
- assay method text: in vitro
- Type: cell-based, canine
- setup conditions: dog, 72 h, 12.5 µmol·L−1
test readout: MDCK cells survival rate (%)
A number alone suffices; assume %.

smiles text: O=C(c1ccc(Nc2ccnc3cc(C(F)(F)F)ccc23)cc1)N1CCN(c2ccc(OC(F)(F)F)cc2)CC1
MDCK cells survival rate / %: 92.13

Measured MDCK cells survival rate of COc1ccccc1OCCNC(=O)c1ccc(Nc2ccnc3ccc(Cl)cc23)cc1 : 92.58

Measured MDCK cells survival rate of O=C(NC1CCCCC1)c1ccc(Nc2ccnc3cc(C(F)(F)F)ccc23)cc1 : 156.36

Measured MDCK cells survival rate of COc1ccccc1OCCNC(=O)c1ccc(Nc2ccnc3ccc(Br)cc23)cc1 : 97.97

----------
Measured MDCK cells survival rate, listed per entry.
- Tested on: MDCK cells
- assay method text: in vitro
- Assay type: cell-based, canine
- setup conditions: dog, 72 h, 12.5 µmol·L−1
A number alone suffices; assume %.

Measured MDCK cells survival rate of COc1ccccc1OCCNC(=O)c1ccc(Nc2ccnc3c(C)cccc23)cc1 : 45.97

Measured MDCK cells survival rate of CCCNC(=O)c1ccc(Nc2ccnc3cc(C(F)(F)F)ccc23)cc1 : 107.23

Measured MDCK cells survival rate of COc1ccccc1OCCNC(=O)c1ccc(Nc2ccnc3ccc(C(F)(F)F)cc23)cc1 : 103.03
